target: rat PTP1 (Rattus norvegicus); construct: a C-terminal truncation of rat PTP1 (amino acid residues 1-322); GST (N, cleaved yes); made in house; host or cells: E. coli strain TG-1 (pGEX-2T); assay: PTP1 assay, pNPP hydrolysis (rate of change in A405); format: biochemical; conditions: Conc 1 uM; pNPP hydrolysis; Table 1; read-out: PTP1 Inhib % Inhib
Sequence (P20417 1-322): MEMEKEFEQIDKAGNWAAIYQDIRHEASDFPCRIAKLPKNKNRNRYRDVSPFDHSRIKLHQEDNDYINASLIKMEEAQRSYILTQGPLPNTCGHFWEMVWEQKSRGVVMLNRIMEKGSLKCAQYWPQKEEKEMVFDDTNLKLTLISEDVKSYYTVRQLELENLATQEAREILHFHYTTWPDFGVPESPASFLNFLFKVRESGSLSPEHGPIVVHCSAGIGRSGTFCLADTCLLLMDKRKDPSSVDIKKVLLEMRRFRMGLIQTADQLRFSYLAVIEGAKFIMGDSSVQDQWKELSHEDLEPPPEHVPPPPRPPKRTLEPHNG
readout name: inhibition at 1 µM (%)

Worked cases, inhibition at 1 µM given:
# compound, system under test, unit spec, inhibition at 1 µM
rows = [
    ("CC(C)CCNC(=O)[C@H](Cc1ccc(OC(C(=O)O)C(=O)O)cc1)NC(=O)CCC(=O)O", "rat PTP1 (Rattus norvegicus)", "%", 0),
    ("CCCCCNC(=O)C(Cc1ccc(OC(C(=O)O)C(=O)O)cc1)NC(=O)C(CC(=O)O)NC(=O)OC(C)(C)C (stereo not shown)", "rat PTP1 (Rattus norvegicus)", "%", 16),
    ("CCCCCNC(=O)[C@H](Cc1ccc(OC(C(=O)O)C(=O)O)cc1)NC(=O)c1ccccc1C(=O)O", "rat PTP1 (Rattus norvegicus)", "%", 2),
    ("O=C(O)CCC(=O)N[C@@H](Cc1ccc(OC(C(=O)O)C(=O)O)cc1)C(=O)NCCC(c1ccccc1)c1ccccc1", "rat PTP1 (Rattus norvegicus)", "%", 0),
]

I = O=C(O)CCC(=O)NC(Cc1ccc(OC(COO)COO)cc1)C(=O)NCCOc1ccccc1 (stereo not shown)
II = CCCCCNC(=O)C(Cc1ccc(OC(=CCOO)COO)cc1)NC(=O)CCC(=O)O (stereo not shown)
Lab notebook, comparison: I versus II , higher inhibition at 1 µM goes to which? Give the label of your selection.
I

P = CCCCCNC(=O)C(Cc1ccc(OC(COO)COO)cc1)NC(=O)N(CC(=O)O)Cc1ccc(OCc2ccccc2)cc1 (stereo not shown)
Q = CCCCCNC(=O)[C@H](Cc1ccc(OC(C(=O)O)C(=O)O)cc1)NC(=O)CC1(CC(=O)O)CCCC1
R = CCCCCNC(=O)C(Cc1ccc(OC(CCOO)COO)cc1)NC(=O)CCC(=O)O (stereo not shown)
S = CCCCCCNC(=O)[C@H](Cc1ccc(OC(C(=O)O)C(=O)O)cc1)NC(=O)CCC(=O)O
# ascending order, key=inhibition at 1 µM Provide the ranking by listing each label in its place in the requested order.
R, Q, S, P
(R: 0%, Q: 2%, S: 3%, P: 5%)

A = CCCCCNC(=O)[C@H](Cc1ccc(OC(C(=O)O)C(=O)O)cc1)NC(=O)CC(=O)O
B = CCCCCNC(=O)[C@H](Cc1ccc(OC(C(=O)O)C(=O)O)cc1)NC(=O)CC(C)(C)CC(=O)O
Lab notebook, comparison: A versus B , higher inhibition at 1 µM goes to which? Give the label of your selection.
A
(A: 4%, B: 0%)

====

molecular target: rat PTP1 (Rattus norvegicus); construct: a C-terminal truncation of rat PTP1 (amino acid residues 1-322); GST (N, cleaved yes); made in house; host or cells: E. coli strain TG-1 (pGEX-2T); test: PTP1 assay, pNPP hydrolysis (rate of change in A405); assay type: biochemical; settings: Conc 100 uM; pNPP hydrolysis; Table 1; read-out: PTP1 Inhib % Inhib
readout name: inhibition at 100 µM (%)

# compound, unit spec, inhibition at 100 µM
data = [
    ("CCCCCNC(=O)[C@H](Cc1ccc(OC(C(=O)O)C(=O)O)cc1)NC(=O)C1CC1C(=O)O (stereo partly drawn)", "%", 57),
    ("O=C(O)CCC(=O)N[C@@H](Cc1ccc(OC(C(=O)O)C(=O)O)cc1)C(=O)NCC1CCCCC1", "%", 73),
    ("CCCCCNC(=O)C(Cc1ccc(OC(COO)COO)cc1)NC(=O)NCC(=O)O (stereo not drawn)", "%", 75),
    ("CCCCCCCCCCNC(=O)C(Cc1ccc(OC(COO)COO)cc1)NC(=O)CCC(=O)O (stereo not drawn)", "%", 51),
    ("CCCCCNC(=O)[C@H](Cc1ccc(OC(C(=O)O)C(=O)O)cc1)NC(=O)CCCC(=O)O", "%", 67),
    ("NS(=O)(=O)c1ccc(CCNC(=O)C(Cc2ccc(OC(COO)COO)cc2)NC(=O)CCC(=O)O)cc1 (stereo not drawn)", "%", 63),
]
